# subject_of_test: cJun bZIP (Homo sapiens, UniProt P05412, S292Y)
# Sequence (P05412 with tags, fused parts or gaps S292Y): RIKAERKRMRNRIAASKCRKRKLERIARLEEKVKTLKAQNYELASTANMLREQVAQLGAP
# test_summary: CD spectra and thermal denaturation of peptide/cJun heterodimers
# condition_summary: peptide (5 μM)/c-Jun (5 μM) heterodimer; Table 6
measured_property: Tm (° C.)
A complete answer gives the number and then names the unit.

// below: answered substances
| substance | subject_of_test | Tm (° C.) |
| --- | --- | --- |
| Ac-EAEELVVEEDVLEEEIKQLEDRNYALRKEIEDLQKQ-NH2 [Peptide 18] | cJun bZIP (Homo sapiens, UniProt P05412, S292Y) | 55.5 ± 1.7 °C |
| Ac-KEAEDLVVEEDVLEEEIEQLEERNYALRKEIKDLQDQ-NH2 [Peptide 12] | cJun bZIP (Homo sapiens, UniProt P05412, S292Y) | 56.5 ± 1.6 °C |
| Ac-EAEELVVEEDVLEEEIEQLEERNYALRKEIKDLQDQ-NH2 [Peptide 22] | cJun bZIP (Homo sapiens, UniProt P05412, S292Y) | 55.6 ± 1.2 °C |
| Ac-EAEELVVEEKVLEDEIEQLEERNYALRKEIEDLQKQ-NH2 [Peptide 16] | cJun bZIP (Homo sapiens, UniProt P05412, S292Y) | 54.9 ± 1.2 °C |
| Ac-EAEELVVEEDVLEEEIEQLEERNYALRKEIEDLQKQ-NH2 [Peptide 11] | cJun bZIP (Homo sapiens, UniProt P05412, S292Y) | 57.1 ± 0.9 °C |
| Ac-EAEELVVEEDVLEEEIEQLEERNYALRKEIEDLQ-NH2 [Peptide 28] | cJun bZIP (Homo sapiens, UniProt P05412, S292Y) | 53.8 ± 5.3 °C |
| Ac-EDVLEEEIEQLEERNYALRKEIEDLQKQLEKLY-NH2 [Peptide 7] | cJun bZIP (Homo sapiens, UniProt P05412, S292Y) | 64.3 ± 1.3 °C |
| Ac-EAEELVVEEDVLEEEIEQLEEKNKALKDEIEDLQKQY-NH2 [Peptide 20] | cJun bZIP (Homo sapiens, UniProt P05412, S292Y) | 56.2 ± 1.3 °C |

Please find the next substance below.
Fill in: Tm (° C.) of Ac-EAEELVVEEDVLEEEIEQLEERNYALRKEIEDLQKQLEKL-NH2 [Peptide 4] is ___
64.1 ± 1.5 °C
